# Test system: LCLC-103H
# test.description: relative viability (nuclei count vs DMSO), 5 days (fraction); higher = more cells survive
# condition.context: first compound 0.8 µM
measured.quantity: relative viability

# molecule, measured.quantity, result
data = [
    ("CCCCCCCCCCCC1=C(O)C(=O)C=C(O)C1=O [Embelin] + CC(=O)c1c(C)c2cnc(Nc3ccc(N4CCNCC4)cn3)nc2n(C2CCCC2)c1=O [Palbociclib] (partner 0.5 µM)", "relative viability", 0.459),
    ("CCCCCCCCCCCC1=C(O)C(=O)C=C(O)C1=O [Embelin] + Nc1ncn([C@H]2C[C@H](O)[C@@H](CO)O2)c(=O)n1 [Decitabine] (partner 2 µM)", "relative viability", 0.755),
    ("CCCCCCCCCCCC1=C(O)C(=O)C=C(O)C1=O [Embelin] + CS(=O)(=O)N1CCN(Cc2cc3nc(-c4cccc5[nH]ncc45)nc(N4CCOCC4)c3s2)CC1 [Pictilisib] (partner 1 µM)", "relative viability", 0.652),
]

For this molecule ( CCCCCCCCCCCC1=C(O)C(=O)C=C(O)C1=O [Embelin] + CC(=O)Nc1cccc(-n2c(=O)n(C3CC3)c(=O)c3c(Nc4ccc(I)cc4F)n(C)c(=O)c(C)c32)c1 [Trametinib] (partner 0.02 µM) ), measured relative viability is 0.742

CCCCCCCCCCCC1=C(O)C(=O)C=C(O)C1=O [Embelin] + C[C@@H](Oc1cc(-c2cnn(C3CCNCC3)c2)cnc1N)c1c(Cl)ccc(F)c1Cl [Crizotinib] (partner 1 µM) yielded relative viability of 1.01
